These measurements were taken from patent US20150010546A1.

Reported koff is given for each of the following binders.
- TESTED SYSTEM: T1, human HGF (R&D Systems, 294-HG/CF) (human, UniProt P14210 32-728)
- T1 construct: The entry begins at QRKRR, without signal peptide; Amine-coupled to the chip in SPR and biotinylated in AlphaScreen; also called rec hHGF (R&D systems)
- T1 sequence (P14210 32-728 limits assumed): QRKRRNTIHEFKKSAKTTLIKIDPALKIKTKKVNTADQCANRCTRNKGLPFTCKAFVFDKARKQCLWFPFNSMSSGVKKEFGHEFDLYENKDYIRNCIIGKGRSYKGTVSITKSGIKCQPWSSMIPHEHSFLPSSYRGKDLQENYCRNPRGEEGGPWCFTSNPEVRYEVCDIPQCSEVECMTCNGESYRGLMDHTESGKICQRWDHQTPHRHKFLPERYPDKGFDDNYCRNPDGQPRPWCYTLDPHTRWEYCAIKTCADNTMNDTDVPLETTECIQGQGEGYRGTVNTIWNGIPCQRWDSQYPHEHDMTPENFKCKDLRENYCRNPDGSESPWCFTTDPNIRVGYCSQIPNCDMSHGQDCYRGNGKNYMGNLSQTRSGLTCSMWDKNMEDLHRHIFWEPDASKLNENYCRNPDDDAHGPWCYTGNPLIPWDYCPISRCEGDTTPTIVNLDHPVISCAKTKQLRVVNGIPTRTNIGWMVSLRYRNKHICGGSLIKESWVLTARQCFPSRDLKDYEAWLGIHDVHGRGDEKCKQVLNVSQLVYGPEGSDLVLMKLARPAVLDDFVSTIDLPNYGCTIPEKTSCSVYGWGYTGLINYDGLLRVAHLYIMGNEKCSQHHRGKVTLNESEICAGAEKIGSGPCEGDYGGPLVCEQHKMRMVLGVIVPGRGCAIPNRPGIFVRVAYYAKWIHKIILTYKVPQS
- METHOD SUMMARY: SPR (Biacore T100), HGF amine-coupled to CM5 chip, periplasmic extract at one dilution
Please reply with the bare figure in s⁻¹ and do not write the unit itself.

Illustrative cases are given below, each with its answer.
BINDER	VALUE KIND	UNITS LABEL	READOUT VALUE
6A6 (VHH, anti-HGF Nanobody clone, tested as periplasmic extract; not shown: c-myc and His6 tags) VHH: EVQLVESGGGLAQAGGSLRLSCAASGRSLSNYAMGWFRQAPGKEREIVCAISRSGSITTYADSVKGRFTIAKDNAANTVYLQMNSLKPEDTAAYYCAADPMYYGIPDQNWDYWGQGTQVTVSS	koff	s⁻¹	0.00164
6E6 (VHH, anti-HGF Nanobody clone, tested as periplasmic extract; not shown: c-myc and His6 tags) VHH: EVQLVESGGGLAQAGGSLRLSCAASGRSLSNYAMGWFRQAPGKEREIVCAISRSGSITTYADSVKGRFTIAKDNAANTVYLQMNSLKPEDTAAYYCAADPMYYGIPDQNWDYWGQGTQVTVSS	koff	s⁻¹	0.0017

Look up koff: 1E9 (VHH, anti-HGF Nanobody clone; not shown: c-myc and His6 tags) VHH: EVQLVESGGGLVQPGGSLRLSCAASGFTLDHYTIGWFRQAPGNEREGVSCISSLDGSTYYADSVKGRFTISRDNAKDTVYLQMNSLKPEDTAVYYCAVAGCGAYGLIPYDYWGQGTQVTVSS
0.00314

Look up koff: 6G6 (VHH, anti-HGF Nanobody clone; not shown: c-myc and His6 tags) VHH: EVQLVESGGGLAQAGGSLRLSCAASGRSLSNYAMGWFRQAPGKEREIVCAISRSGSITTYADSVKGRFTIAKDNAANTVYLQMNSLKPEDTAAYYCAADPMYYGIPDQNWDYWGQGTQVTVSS
0.00178
